Reference for the values: PubChem BioAssay (NCI)

# Test system: OVCAR-8 ovarian
# Assay summary: NCI-60 one-dose screen, 48 h (100 = growth as untreated, 0 = no growth, -100 = all killed)
# Cond: 10 µM
# Procedure: Growth inhibition of the OVCAR-8 human tumor cell line is measured as a screen for anti-cancer activity. Cells are grown in 96 well plates and exposed to the test compound for 48 hours. Compounds are tested at a single concentration, which is 10^-5 M for most compounds. The reported endpoint is percent growth (GI% or GIPRCNT), where numbers from 0 - 100% represent growth inhibition, and numbers from -100% - 0 represent cell death. For example, a value of 40 represents 60% growth inhibition. […]
The panel holds about 83,000 compounds, 20% with a hit somewhere; the sample as a whole holds those more often.
Readout: growth (%)
Numbers only here, please. The scale is %.

As a guide, the following entries are already answered.
COc1cc(NC(=O)c2sc3nc4c(cc3c2N)C(O)CCC4)cc(OC)c1 (centres undefined) : 97.5
N#Cc1cccc(OCc2nc(N)nc(N)c2-c2ccc(Cl)c(Cl)c2)c1 : 19.3
CC(=O)O[C@]1(C)CC[C@H]2[C@H](CNCCc3ccc(Cl)cc3)C(=O)O[C@@H]2C2=C(C)C(=O)C[C@H]21 : 93.1
COc1ccc2c(c1)O/C(=C\c1ncc([N+](=O)[O-])n1C)C2=O : -20.8
O=C(NC(Cc1ccc(O)cc1)C(=O)N=Nc1c(O)[nH]c2ccccc12)c1ccccc1 (centres undefined) : 93.9

Query: Query (molecule): Nc1c(C(=O)Nc2cccc(F)c2)sc2nc3c(cc12)C(=O)CCC3 ; field requested: growth
Result: 63.9

Query: Now the molecule COc1ccc(/C(=C2\O[C@@H]([C@H]3COC(C)(C)O3)[C@H]3OC(C)(C)O[C@@H]23)c2cc(OC)c(OC)c(OC)c2)cc1O
Result: 68.3

Query: Now the molecule O=C(c1ccc(Cl)cc1Cl)N1CCOCC1
Result: 104

Query: Now the molecule CCCCCC(=O)c1ccc(OCCCN2CCN(C(=O)OCC)CC2)cc1
Result: 104
